assayed-system: KAT (Rattus norvegicus)
Sequence (Q08415 whole entry): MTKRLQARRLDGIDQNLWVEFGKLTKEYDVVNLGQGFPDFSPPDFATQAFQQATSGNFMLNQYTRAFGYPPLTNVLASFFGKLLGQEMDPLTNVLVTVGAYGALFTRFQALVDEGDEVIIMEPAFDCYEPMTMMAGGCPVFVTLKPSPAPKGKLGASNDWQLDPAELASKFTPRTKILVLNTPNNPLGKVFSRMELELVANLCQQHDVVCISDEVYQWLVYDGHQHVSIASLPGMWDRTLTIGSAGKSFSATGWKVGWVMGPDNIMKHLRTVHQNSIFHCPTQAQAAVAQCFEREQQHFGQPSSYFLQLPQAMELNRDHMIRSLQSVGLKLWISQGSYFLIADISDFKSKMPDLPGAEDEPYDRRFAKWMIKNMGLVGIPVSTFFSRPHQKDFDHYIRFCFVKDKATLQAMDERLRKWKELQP
reported-endpoint: Ki (µM)

In [3]: df
Out[3]:
                                   molecule  obs_value
0  Nc1ccc(Cl)cc1C(=O)CC(N)C(=O)O (stereo not shown)         88

----------
Tested on: Kynurenine Aminotransferase (KAT)
protocol-details: Determination of KAT activity inhibition in rat brain homogenate
Assay type: biochemical
settings: 1000 μM, 2 μM [3H]KYN, 2 h at 37° C., pH 8.0
reported-endpoint: KYNA production % of inhibition (%)

>>> print(df.to_string())
                                   molecule                reported_endpoint  units_label  obs_value
0  Nc1ccc(C2CCCCC2)cc1C(=O)CC(N)C(=O)O (stereo not shown)  KYNA production % of inhibition            %         77
1  Nc1ccc(Br)cc1C(=O)CC(N)C(=O)O (stereo not shown)  KYNA production % of inhibition            %         83
2         Nc1ccc(Cl)cc1C(=O)C[C@H](N)C(=O)O  KYNA production % of inhibition            %         89
3        Nc1ccc(Cl)cc1C(=O)C[C@@H](N)C(=O)O  KYNA production % of inhibition            %         31
4  CCCc1ccc(N)c(C(=O)CC(N)C(=O)O)c1 (stereo not shown)  KYNA production % of inhibition            %         72
5  CCc1ccc(N)c(C(=O)CC(N)C(=O)O)c1 (stereo not shown)  KYNA production % of inhibition            %         78
6  Nc1ccc(Cl)cc1C(=O)CC(N)C(=O)O (stereo not shown)  KYNA production % of inhibition            %         81
7  CC(C)c1ccc(N)c(C(=O)CC(N)C(=O)O)c1 (stereo not shown)  KYNA production % of inhibition            %         72
8  Nc1ccc(F)cc1C(=O)CC(N)C(=O)O (stereo not shown)  KYNA production % of inhibition            %         74
9  Cc1ccc(N)c(C(=O)CC(N)C(=O)O)c1 (stereo not shown)  KYNA production % of inhibition            %         51
